Collected CD122 Binding Response (A1 normalized to 1) values appear next to each entry.
SYSTEM: T1, human CD122-Fc (AbroBio) (human, UniProt P14784 27-239)
T1 construct: also called IL-2Rβ; not shown: Fc part and any linker of the bought protein are not described; captured on an anti-human Fc sensor
T1 sequence: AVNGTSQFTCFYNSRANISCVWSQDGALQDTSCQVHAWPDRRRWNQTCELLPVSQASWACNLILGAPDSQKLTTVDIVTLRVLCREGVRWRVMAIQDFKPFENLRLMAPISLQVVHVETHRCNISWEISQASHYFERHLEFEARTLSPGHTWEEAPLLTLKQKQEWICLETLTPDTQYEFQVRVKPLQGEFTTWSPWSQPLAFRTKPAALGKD
PROTOCOL_DETAILS: BLI (Octet RED96), CD122-Fc on AHC sensor, 400 nM hIL-2 polypeptide
MEASURED_QUANTITY: CD122 Binding Response (A1 normalized to 1)

BINDER	OBSERVED_RESULT
hIL-2-anti-HSA A71 (ligand, fused to anti-HSA VHH; also called hIL-2 mutein (K32E, F42C, V69C, I92L, C125S)) APTSSSTKKTQLQLEHLLLDLQMILNGINNYENPKLTRMLTCKFYMPKKATELKHLQCLEEELKPLEECLNLAQSKNFHLRPRDLISNINVLVLELKGSETTFMCEYADETATIVEFLNRWITFSQSIISTLTGSGGSGGSGGSGEVQLVESGGGLVQPGGSLRLSCAASGSTWSINTLAWYRQAPGKQRDLVARISSGGSTYYADSVKGRFTISRDNSKNTLYLQMNSLRAEDTAVYYCYAQSTWYPPSWGQGTLVTVSS	1.44
hIL-2-anti-HSA A63 (ligand, fused to anti-HSA VHH; also called hIL-2 mutein (T3A, R38N, L40T, F42A, V91I, C125S)) APASSSTKKTQLQLEHLLLDLQMILNGINNYKNPKLTNMTTAKFYMPKKATELKHLQCLEEELKPLEEVLNLAQSKNFHLRPRDLISNINIIVLELKGSETTFMCEYADETATIVEFLNRWITFSQSIISTLTGSGGSGGSGGSGEVQLVESGGGLVQPGGSLRLSCAASGSTWSINTLAWYRQAPGKQRDLVARISSGGSTYYADSVKGRFTISRDNSKNTLYLQMNSLRAEDTAVYYCYAQSTWYPPSWGQGTLVTVSS	0.35
